test: chemical genetic growth profiling, strain panel (AID 1159580);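 also: tested at 20 µM; growth read once vehicle control cultures reached saturation at 30 °C; 1 = growth at the plate median or of vehicle wells; lower values mean less growth of the strain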; details: S. cerevisiae deletion strains, growth OD, locus YDL074C, strain BRE1, active compounds read low
Among all 5,500 compounds or so, about 2,000 (36%) were called active. Roughly 18% stayed inconclusive and do not appear here. The list shows a part of the results.
Endpoint: normalized growth
Give the value as a plain number.

Sample CCC1(O)CC(OC2CC(N(C)C)C(OC3CC(O)C(OC4CCC(=O)C(C)O4)C(C)O3)C(C)O2)c2c(cc3c(c2O)C(=O)c2c(O)cccc2C3=O)C1C(=O)OC (stereo not drawn) — what was its normalized growth?
0.998

Sample C=C[C@@](C)(O)CCC1C(=C)CCC2[C@@](C)(CO)CCC[C@]12C (stereo partly drawn) — what was its normalized growth?
0.982

Sample O=C1NCC2(CCN(CCc3ccccc3)CC2)O1 — what was its normalized growth?
1.02

Sample CCCCNC(=O)NS(=O)(=O)c1ccc(C)cc1 — what was its normalized growth?
1.02

Sample CC1(C)CCC[C@@]2(C)C1[C@@H](O)C[C@]1(C)C2CC[C@@H]2[C@@]3(C)CC[C@H](C(C)(C)O)[C@@H]3CC[C@@]21C (stereo partly drawn) — what was its normalized growth?
1.02

Sample C=C[C@@](C)(O)CCC1C(=C)C[C@H](O)C2C(C)(C)CCCC12C (stereo partly drawn) — what was its normalized growth?
0.974

Sample CCC[C@H](N[C@@H](C)C(=O)N1[C@H](C(=O)O)C[C@@H]2CCCC[C@@H]21)C(=O)OCC — what was its normalized growth?
1.02

Sample NCCc1cnc[nH]1 — what was its normalized growth?
1
